System: S. aureus ATCC 29213
endpoint name: MIC (µg/mL)

INSERT INTO assay_data (molecule_smiles, readout_value) VALUES
  ('O=c1[nH]sc2c1c(=O)c1cc(F)c(-c3cccnc3)cc1n2C1CC1', 0.007);

[1] O=c1[nH]sc2c1c(=O)c1cc(F)c(-c3ccccc3)cc1n2C1CC1
[2] CCOc1cccc(-c2cc3c(cc2F)c(=O)c2c(=O)[nH]sc2n3C2CC2)c1
[3] O=C(O)c1cccc(-c2cc3c(cc2F)c(=O)c2c(=O)[nH]sc2n3C2CC2)c1
In: Arrange the 3 entries by MIC so the values rise. Please list the labels in the order you were asked to rank them.
Out: 1, 2, 3
(1: 0.007 µg/mL, 2: 0.03 µg/mL, 3: 0.125 µg/mL)
